experiment: Multiple-ascending-dose phase 1 study: plasma and urine pharmacokinetics; assay type: in vivo, humans; conditions: human, plasma, iv, 100 mg, 100 mg IV once weekly x2, day 1, arithmetic mean; read-out: Vz
Numbered stars: 1 amine (or outer) side, 2 acyl side, 3 side chain; on linkers, the order of the positions; unused ones are H or OH. Bridge positions count the residues as written; N and C are the ends. Square brackets hold non-standard residues; d marks the D form. Peptide text beside a SMILES is read from it. * marks the point of attachment. Orn(4R-OH,5R-OCH2CH2NMe3+) = C[N+](C)(C)CCO[C@@H](N[*:3])[C@H](O)C[C@H](N[*:1])C(=O)[*:2]; pTerphenylCO(4''-OnC5H11) = CCCCCOc1ccc(-c2ccc(-c3ccc(C(=O)*)cc3)cc2)cc1; hTyr(3S-OH,4S-OH) = N[C@H](C(=O)O)[C@H](O)[C@@H](O)c1ccc(O)cc1; Pro(3S-OH,4S-Me) = C[C@H]1CN[C@H](C(=O)O)[C@H]1O; Hyp = O=C(O)[C@@H]1C[C@@H](O)CN1
Reported metric: Vd (L)

- Molecule: "CCCCCOc1ccc(-c2ccc(-c3ccc(C(=O)N[C@H]4C[C@@H](O)[C@@H](OCC[N+](C)(C)C)NC(=O)[C@@H]5[C@@H](O)[C@@H](C)CN5C(=O)[C@H]([C@@H](C)O)NC(=O)[C@H]([C@H](O)[C@@H](O)c5ccc(O)cc5)NC(=O)[C@@H]5C[C@@H](O)CN5C(=O)[C@H]([C@@H](C)O)NC4=O)cc3)cc2)cc1 [CD101] ({pTerphenylCO(4''-OnC5H11)}-[Orn(4R-OH,5R-OCH2CH2NMe3+)]T[Hyp][hTyr(3S-OH,4S-OH)]T[Pro(3S-OH,4S-Me)]; lactam 1-C)"
  Reading: 29.5
